# targetEntity: Cannabinoid receptor (Mus musculus) (UniProt P47746+P47936)
# Sequence (P47746 whole entry, looked up): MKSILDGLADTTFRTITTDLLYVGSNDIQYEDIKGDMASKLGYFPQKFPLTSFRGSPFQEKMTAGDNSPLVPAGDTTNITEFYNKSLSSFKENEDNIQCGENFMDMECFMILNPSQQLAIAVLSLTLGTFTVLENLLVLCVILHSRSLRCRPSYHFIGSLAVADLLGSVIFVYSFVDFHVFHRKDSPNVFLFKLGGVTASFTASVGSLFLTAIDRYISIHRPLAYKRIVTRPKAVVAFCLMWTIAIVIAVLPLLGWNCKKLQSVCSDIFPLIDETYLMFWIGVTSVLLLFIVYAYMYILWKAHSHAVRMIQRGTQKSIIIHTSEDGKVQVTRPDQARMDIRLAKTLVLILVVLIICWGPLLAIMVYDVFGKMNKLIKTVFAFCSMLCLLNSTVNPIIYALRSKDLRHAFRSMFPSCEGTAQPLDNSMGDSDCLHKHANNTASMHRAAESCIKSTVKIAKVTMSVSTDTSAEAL
# Sequence (P47936 whole entry, looked up): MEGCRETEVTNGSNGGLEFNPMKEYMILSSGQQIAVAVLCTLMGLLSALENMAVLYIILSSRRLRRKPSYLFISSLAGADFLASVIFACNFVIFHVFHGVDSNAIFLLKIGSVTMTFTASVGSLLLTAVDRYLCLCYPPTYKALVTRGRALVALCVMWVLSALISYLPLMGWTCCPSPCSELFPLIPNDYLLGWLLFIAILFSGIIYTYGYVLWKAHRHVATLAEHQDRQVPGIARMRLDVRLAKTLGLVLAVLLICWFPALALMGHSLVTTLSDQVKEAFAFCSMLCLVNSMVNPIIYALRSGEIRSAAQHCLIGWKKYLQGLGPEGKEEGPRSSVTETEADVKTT
# methodSummary: Agonist activity at cannabinoid receptor in ICR mouse vas deferens assessed as inhibition of electrically induced contractions at 3 x 10^-7 M after 10 mins in presence of CB2 antagonist AM630 relative to control
# Type: protein assay
observable: inhibition
Just so you know, I need the unit written after the number.

Example compounds with recorded inhibition:
substanceSmiles | targetEntity | inhibition
Cc1c(C(=O)c2cccc3ccccc23)c2cccc3c2n1[C@H](CN1CCOCC1)CO3 | Cannabinoid receptor (Mus musculus) (UniProt P47746+P47936) | 2%
O=C(c1c(F)ccc(F)c1F)n1nc(OCCN2CCCCC2)c2ccccc21 | Cannabinoid receptor (Mus musculus) (UniProt P47746+P47936) | -1.7%
O=C(c1cccc(F)c1F)n1nc(OCCN2CCCC2)c2ccccc21 | Cannabinoid receptor (Mus musculus) (UniProt P47746+P47936) | -2.8%
O=C(c1cccc2ccccc12)n1nc(OCCN2CCCCC2)c2ccccc21 | Cannabinoid receptor (Mus musculus) (UniProt P47746+P47936) | -7.9%
O=C(c1ccccc1OCc1ccccc1)n1nc(OCCCN2CCCCC2)c2ccccc21 | Cannabinoid receptor (Mus musculus) (UniProt P47746+P47936) | 1.1%
O=C(c1cccc(Cl)c1F)n1nc(OCCCN2CCCCC2)c2ccccc21 | Cannabinoid receptor (Mus musculus) (UniProt P47746+P47936) | 1.7%

// each listed compound needs a value for inhibition
1. COc1ccc(CC(=O)n2nc(OCCN3CCCC3)c3ccccc32)cc1
2. O=C(Cc1ccc(Cl)cc1)n1nc(OCCCN2CCCCC2)c2ccccc21
3. COc1ccc(CC(=O)n2nc(OCCCN3CCCCC3)c3ccccc32)cc1
4. O=C(c1cccc2ccccc12)n1nc(OCCCN2CCCCC2)c2ccccc21

1. 3.3%
2. -3.2%
3. -9.4%
4. -5.4%

I'm hoping you can list inhibition for every compound here, please.
1. O=C(c1ccccc1Cl)n1nc(OCCN2CCCC2)c2ccccc21
2. O=C(c1ccccc1OCc1ccccc1)n1nc(OCCN2CCCC2)c2ccccc21
3. O=C(c1cccc(Cl)c1Cl)n1nc(OCCN2CCCCC2)c2ccccc21
4. O=C(c1cccc(Cl)c1Cl)n1nc(OCCN2CCCC2)c2ccccc21
5. COc1cc(C(=O)n2nc(OCCN3CCCC3)c3ccccc32)cc(OC)c1OC
6. O=C(c1cccc(Cl)c1Cl)n1nc(OCCCN2CCCCC2)c2ccccc21
7. O=C(c1cccc2ccccc12)n1nc(OCCCN2CCCC2)c2ccccc21

1. 0.3%
2. -1.6%
3. -1.3%
4. 3.4%
5. 0.8%
6. 0%
7. -0.9%

Tell me the measured inhibition of O=C(c1ccccc1Cl)n1nc(OCCCN2CCCCC2)c2ccccc21 , please.
-7%

###

# targetEntity: Cannabinoid receptor (Mus musculus) (UniProt P47746+P47936)
# methodSummary: Agonist activity at cannabinoid receptor in ICR mouse vas deferens assessed as inhibition of electrically induced contractions at 3 x 10^-7 M after 10 mins in presence of CB1 antagonist AM251 relative to control
# Type: protein assay
Give inhibition for every item shown.
Give bare numbers, in %.

# example entries with known answers
substanceSmiles | unitsLabel | inhibition
O=C(Cc1ccc(Cl)cc1)n1nc(OCCCN2CCCCC2)c2ccccc21 | % | -6.2
O=C(c1ccccc1OCc1ccccc1)n1nc(OCCN2CCCC2)c2ccccc21 | % | -0.5
Cc1c(C(=O)c2cccc3ccccc23)c2cccc3c2n1[C@H](CN1CCOCC1)CO3 | % | -2.7
O=C(c1cccc(Cl)c1F)n1nc(OCCCN2CCCCC2)c2ccccc21 | % | -5.3

Quick check: inhibition on Cannabinoid receptor (Mus musculus) (UniProt P47746+P47936), item Cc1cc(C)c(C(=O)n2nc(OCCN3CCCCC3)c3ccccc32)c(C)c1 ?
1.4

###

# targetEntity: Cannabinoid receptor (Mus musculus) (UniProt P47746+P47936)
# methodSummary: Agonist activity at cannabinoid receptor in ICR mouse vas deferens assessed as inhibition of electrically induced contractions at 1.82 x 10^-5 M after 10 mins relative to control
# Type: protein assay
inhibition of 80% or higher: criterion met. Under 80%: criterion not met.

Use these answered entries as a reference point.
substanceSmiles | assignedClass
Cc1cc(C)c(C(=O)n2nc(OCCN3CCCCC3)c3ccccc32)c(C)c1 | criterion not met
O=C(c1cccc(Cl)c1Cl)n1nc(OCCN2CCCCC2)c2ccccc21 | criterion met

Exam item: decide whether the reported inhibition for O=C(c1ccccc1Cl)n1nc(OCCCN2CCCCC2)c2ccccc21 is at least 80%.
criterion met

Further, for O=C(c1cccc(Cl)c1Cl)n1nc(OCCCN2CCCCC2)c2ccccc21 ?
criterion met

Then what about the molecule O=C(Cc1ccc(Cl)cc1)n1nc(OCCCN2CCCCC2)c2ccccc21 ?
criterion met

###

# targetEntity: Cannabinoid receptor (Mus musculus) (UniProt P47746+P47936)
# methodSummary: Agonist activity at cannabinoid receptor in ICR mouse vas deferens assessed as inhibition of electrically induced contractions at 9 x 10^-7 M after 10 mins in presence of CB1 antagonist AM251 relative to control
# Format: protein assay
Kindly state inhibition for each of the entries shown.
Give bare numbers, in %.

substanceSmiles | unitsLabel | observedValue
O=C(c1cccc(Cl)c1Cl)n1nc(OCCCN2CCCCC2)c2ccccc21 | % | 8.7
O=C(c1ccccc1OCc1ccccc1)n1nc(OCCN2CCCC2)c2ccccc21 | % | 1.3
Cc1c(C(=O)NN2CCCCC2)nn(-c2ccc(Cl)cc2Cl)c1-c1ccc(I)cc1 | % | 12.1

I would be grateful if you could provide inhibition for each of the following entries.
1. O=C(c1ccccc1OCc1ccccc1)n1nc(OCCCN2CCCCC2)c2ccccc21
2. O=C(c1cccc(Cl)c1F)n1nc(OCCCN2CCCCC2)c2ccccc21
3. COc1ccc(CC(=O)n2nc(OCCN3CCCC3)c3ccccc32)cc1
4. O=C(c1c(F)ccc(F)c1F)n1nc(OCCN2CCCCC2)c2ccccc21
5. COc1cc(C(=O)n2nc(OCCN3CCCC3)c3ccccc32)cc(OC)c1OC
6. O=C(c1cccc(Cl)c1Cl)n1nc(OCCN2CCCCC2)c2ccccc21
7. O=C(c1ccccc1Cl)n1nc(OCCN2CCCC2)c2ccccc21
8. Cc1c(C(=O)c2cccc3ccccc23)c2cccc3c2n1[C@H](CN1CCOCC1)CO3

1: -4.5; 2: 4.3; 3: 2.4; 4: 6.7; 5: 5.6; 6: 1; 7: -1.2; 8: 2

For every record below, what is its inhibition?
1. O=C(c1cccc2ccccc12)n1nc(OCCCN2CCCC2)c2ccccc21
2. O=C(c1cccc(F)c1F)n1nc(OCCN2CCCC2)c2ccccc21
3. O=C(c1cccc2ccccc12)n1nc(OCCCN2CCCCC2)c2ccccc21
4. O=C(c1ccccc1Cl)n1nc(OCCCN2CCCCC2)c2ccccc21
5. Cc1cc(C)c(C(=O)n2nc(OCCN3CCCCC3)c3ccccc32)c(C)c1

[-7.2, 4.9, -3.7, 4.7, 7.6]

Consider the following items and state reported inhibition for each.
1. O=C(c1cccc(Cl)c1Cl)n1nc(OCCN2CCCC2)c2ccccc21
2. O=C(Cc1ccc(Cl)cc1)n1nc(OCCCN2CCCCC2)c2ccccc21

7.1
-2.2

###

# targetEntity: Cannabinoid receptor (Mus musculus) (UniProt P47746+P47936)
# methodSummary: Agonist activity at cannabinoid receptor in ICR mouse vas deferens assessed as inhibition of electrically induced contractions at 2.7 x 10^-6 M after 10 mins in presence of CB1 antagonist AM251 relative to control
# Format: protein assay
observable: inhibition

Below, 5 molecules whose answers are already recorded.
substanceSmiles | targetEntity | observedValue
COc1ccc(CC(=O)n2nc(OCCCN3CCCCC3)c3ccccc32)cc1 | Cannabinoid receptor (Mus musculus) (UniProt P47746+P47936) | -1.6%
O=C(c1cccc(Cl)c1Cl)n1nc(OCCN2CCCCC2)c2ccccc21 | Cannabinoid receptor (Mus musculus) (UniProt P47746+P47936) | 3.1%
COc1cc(C(=O)n2nc(OCCN3CCCC3)c3ccccc32)cc(OC)c1OC | Cannabinoid receptor (Mus musculus) (UniProt P47746+P47936) | 15%
O=C(c1ccccc1OCc1ccccc1)n1nc(OCCN2CCCC2)c2ccccc21 | Cannabinoid receptor (Mus musculus) (UniProt P47746+P47936) | 5.9%
COc1ccc(CC(=O)n2nc(OCCN3CCCC3)c3ccccc32)cc1 | Cannabinoid receptor (Mus musculus) (UniProt P47746+P47936) | 12.2%

Could you tell me inhibition for each of these molecules? They are listed below.
1. O=C(c1ccccc1Cl)n1nc(OCCN2CCCC2)c2ccccc21
2. O=C(c1cccc2ccccc12)n1nc(OCCCN2CCCC2)c2ccccc21
3. O=C(c1cccc(Cl)c1Cl)n1nc(OCCCN2CCCCC2)c2ccccc21
4. Cc1cc(C)c(C(=O)n2nc(OCCN3CCCCC3)c3ccccc32)c(C)c1
5. O=C(c1ccccc1Cl)n1nc(OCCCN2CCCCC2)c2ccccc21

1. -2.2%
2. 5.7%
3. 15.2%
4. 8.7%
5. 10.7%
